Assay: Therapeutic index, ratio of UD50 for ulcerogenicity in po dosed Donryu rat assessed as gastric lesion to ID50 for antiinflammatory activity in po dosed Donryu rat assessed as inhibition of carrageenan-induced paw edema
Format: organism-based, Stomach
Details: in vivo, read-out: TI
Test Readout: selectivity ratio
Give the figure by itself; no unit, no explanation.

>  <Compound>
O=C(O)Cc1ccc2c(c1)OCc1ccccc1C2=O [OXEPINAC]

>  <selectivity ratio>
21.6

$$$$
>  <Compound>
CC1(C)OCC(COC(=O)Cc2ccc3c(c2)OCc2ccccc2C3=O)O1 (stereo not drawn)

>  <selectivity ratio>
5.6

$$$$

# evaluate next
State the recorded selectivity ratio for this entry: O=C(Cc1ccc2c(c1)OCc1ccccc1C2=O)OCC(O)CO (stereo not drawn)
8.1

* * *

The following molecules are listed with their measured TD50 values.
Assay: Ulcerogenicity in po dosed Donryu rat assessed as gastric lesion
Assay type: toxicity, organism-based, Stomach
Conditions: in vivo, read-out: UD50 (the source's name)
Please state the figure in µmol/kg; there is no need to write the unit.

State the recorded TD50 for this entry: CC1(C)OCC(COC(=O)Cc2ccc3c(c2)OCc2ccccc2C3=O)O1 (stereo not drawn)
559

State the recorded TD50 for this entry: O=C(Cc1ccc2c(c1)OCc1ccccc1C2=O)OCC(O)CO (stereo not drawn)
252

State the recorded TD50 for this entry: O=C(O)Cc1ccc2c(c1)OCc1ccccc1C2=O [OXEPINAC]
279
